- Tested on: SK-OV-3
- TEST_METHOD_NOTES: Cell proliferation assay (MTS or SRB), SK-OV-3
- Type: cell-based, human
- COND: SK-OV-3, Ovarian, 3 days; read-out: IC50 (cell growth inhibition)
pIC50: −log10 of the molar value.

MOLECULE: N.N.[Cl][Pt][Cl] [Cisplatin]
pIC50: 5.04

----------
- Tested on: Caki-2
- TEST_METHOD_NOTES: Cell proliferation assay (MTS or SRB), Caki-2
- Type: cell-based
- COND: Homo sapiens, 72 h; Caki-2, Kidney, 3 days; read-out: IC50 (cell growth inhibition)
- Method: In vitro cell proliferation assays were performed using a 96-well plate based MTSassay (CellTiter 96° AqueousOne Solution Cell Proliferation Assay, Promega) or SRB (Sulforhodamine-B) assay (1-3). […] After incubation for 3 days at 37° C. in a humidified incubator, viable cells were measured either by MTS or SRB assay. […] Raw data were acquired using a BioTek Synergy™ HT Multiple Detection microplate reader and imported into Microsoft Excel for analysis. […]
pIC50: −log10 of the molar value.

COMPOUND: CCCCCCCCCCCCCCCCOCCCOP(=O)(O)CO[C@H](CO)Cn1ccc(N)nc1=O [CMX001]
LIMIT_OPERATOR: =
pIC50: 4.22

COMPOUND: COc1cccc2c1C(=O)c1c(O)c3c(c(O)c1C2=O)C[C@@](O)(C(=O)CO)C[C@@H]3O[C@H]1C[C@H](N)[C@H](O)[C@H](C)O1 [Doxorubicin]
LIMIT_OPERATOR: =
pIC50: 5.91

COMPOUND: Nc1ccn(C[C@@H](CO)OCP(=O)(O)O)c(=O)n1 [cidofovir]
LIMIT_OPERATOR: <
pIC50: 4.00

----------
- Test system: JCV Mad-4
- TEST_METHOD_NOTES: Extracellular JCV load in JCV-infected COS-7 cells (qPCR)
- Format: cell-based
- COND: 120 h; COS-7, day 5 p.i., viral input subtracted; read-out: inhibitory concentration IC-50 (extracellular JCV load)

STRUCTURE_SMILES: CCCCCCCCCCCCCCCCOCCCOP(=O)(O)CO[C@H](CO)Cn1ccc(N)nc1=O
TARGET_SYSTEM: JCV Mad-4
UNIT_SYMBOL: nM
IC50: 150

----------
- System: tumor cell lines
- TEST_METHOD_NOTES: Cell proliferation assay (MTS or SRB), panel of human tumor cell lines
- Type: cell-based
- COND: 22 tumor cell lines, read-out: IC50 values in the tumor cell lines (range over panel)
OBSERVATION_TYPE: IC50

STRUCTURE_SMILES: CCCCCCCCCCCCCCCCOCCCOP(=O)(O)CO[C@H](CO)Cn1ccc(N)nc1=O
ENDPOINT_RESULT: 6.6 to 100 µM

----------
- Test system: BK virus
- TEST_METHOD_NOTES: Antiviral activity against BK virus in RPTEC cells (viral DNA by qPCR, 5 days)
- Type: cell-based
- COND: Betapolyomavirus hominis, RPTEC, virus dilution 1:10; RPTEC cells; read-out: EC50

MOLECULE: Nc1ccn(C[C@@H](CO)OCP(=O)(O)O)c(=O)n1 [cidofovir]
TARGET_SYSTEM: BK virus
UNIT_SYMBOL: nM
EC50: 2000
